# tested target: T1, GST-RIM2 (KIAA0751) PDZ domain 1 (human)
# T1 construct: Construct RIM2, PDZ domain 1-pGEX-3X; vector sites BamH1/EcoR1, insert sites BglII/MfeI; also called GST-RIM2 PDZ domain; RIM3 (as printed once)
# T1 sequence (chain, as listed by the source): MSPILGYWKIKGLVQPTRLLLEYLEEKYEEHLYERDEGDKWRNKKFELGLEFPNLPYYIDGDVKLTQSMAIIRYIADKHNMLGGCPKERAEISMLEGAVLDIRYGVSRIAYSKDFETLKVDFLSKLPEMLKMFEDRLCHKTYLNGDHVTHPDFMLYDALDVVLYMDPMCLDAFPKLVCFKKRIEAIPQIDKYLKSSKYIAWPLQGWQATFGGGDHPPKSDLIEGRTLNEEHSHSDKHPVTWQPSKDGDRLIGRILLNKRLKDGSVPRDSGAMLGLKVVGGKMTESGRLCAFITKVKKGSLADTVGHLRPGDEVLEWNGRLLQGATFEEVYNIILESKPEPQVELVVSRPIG
# protocol summary: modified ELISA, plated GST-RIM2 PDZ domain, biotinylated peptide 0.001-10 µM, curve fit; Relative EC50
pEC50: −log10 of the molar value. Where no end group is shown, it is not given here.
pEC50 reference
readout: pEC50

binder: YGRKKRRQRRRARGDRKRWL (also: biotinylated, position not given here, TAT plus 9 residues; also called AVC#1822) [YGRKKRRQRRRARGDRKRWL (SEQ ID NO: 141)]
readout: pEC50
relation symbol: =
reported value: 8.10
//
binder: YGRKKRRQRRRLQRRRETQV (also: biotinylated, position not given here, TAT plus 9 residues) [YGRKKRRQRRRLQRRRETQV (AVC#1856)]
readout: pEC50
relation symbol: =
reported value: 7.48
//
binder: YGRKKRRQRRRARGDRRRIV (also: biotinylated, position not given here, TAT plus 9 residues; also called AVC#1849) [YGRKKRRQRRRARGDRRRIV (SEQ ID NO: 165)]
readout: pEC50
relation symbol: =
reported value: 7.43
//
binder: YGRKKRRQRRRARGDRKRIV (also: biotinylated, position not given here, also called AVC#1796; AVC 1796) [YGRKKRRQRRRARGDRKRIV (SEQ ID NO: 136)]
readout: pEC50
relation symbol: =
reported value: 7.70
//
binder: YGRKKRRQRRRQDERRLIVL (also: biotinylated (position not given here), TAT plus 9 residues; also called AVC#1842) [YGRKKRRQRRRQDERRLIVL (SEQ ID NO: 158)]
readout: pEC50
relation symbol: =
reported value: 7.11
//
binder: YGRKKRRQRRRSRTVREIWA (also: biotinylated (position not given here), TAT plus 9 residues; also called AVC#1834) [YGRKKRRQRRRSRTVREIWA (SEQ ID NO: 150)]
readout: pEC50
relation symbol: >
reported value: 8.00
//
binder: YGRKKRRQRRRGMTSSSSVV (also: biotinylated, position not given here, TAT plus 9 residues; also called AVC#1853) [YGRKKRRQRRRGMTSSSSVV (SEQ ID NO: 169)]
readout: pEC50
relation symbol: =
reported value: 6.87
//
binder: YGRKKRRQRRRQDEEEGIWS (also: biotinylated, position not given here, TAT plus 9 residues; also called AVC#1833) [YGRKKRRQRRRQDEEEGIWS (SEQ ID NO: 149)]
readout: pEC50
relation symbol: =
reported value: 7.30
//
binder: YGRKKRRQRRRAVAATGIWA (also: biotinylated, position not given here, TAT plus 9 residues; also called AVC#1827) [YGRKKRRQRRRAVAATGIWA (SEQ ID NO: 143)]
readout: pEC50
relation symbol: >
reported value: 8.00
//
binder: YGRKKRRQRRRQDEEEGIWA (also: biotinylated, position not given here, also called AVC#1790; AVC 1790) [YGRKKRRQRRRQDEEEGIWA (SEQ ID NO: 137)]
readout: pEC50
relation symbol: =
reported value: 8.30
//
binder: YGRKKRRQRRRARSDRKRIV (also: biotinylated, position not given here, TAT plus 9 residues; also called AVC#1851) [YGRKKRRQRRRARSDRKRIV (SEQ ID NO: 167)]
readout: pEC50
relation symbol: =
reported value: 7.33
//
binder: YGRKKRRQRRRARGDRLVSL (also: biotinylated, position not given here, TAT plus 9 residues; also called AVC#1843) [YGRKKRRQRRRARGDRLVSL (SEQ ID NO: 159)]
readout: pEC50
relation symbol: =
reported value: 7.17
//
binder: YGRKKRRQRRRARGDRLEIV (also: biotinylated, position not given here, TAT plus 9 residues; also called AVC#1847) [YGRKKRRQRRRARGDRLEIV (SEQ ID NO: 163)]
readout: pEC50
relation symbol: =
reported value: 6.88
//
binder: YGRKKRRQRRRSRTDRLEYV (also: biotinylated (position not given here), TAT plus 9 residues; also called AVC#1846) [YGRKKRRQRRRSRTDRLEYV (SEQ ID NO: 162)]
readout: pEC50
relation symbol: =
reported value: 8.00
//
binder: YGRKKRRQRRRARGDRKIRV (also: biotinylated, position not given here, TAT plus 9 residues; also called AVC#1836) [YGRKKRRQRRRARGDRKIRV (SEQ ID NO: 152)]
readout: pEC50
relation symbol: =
reported value: 8.00
//
binder: YGRKKRRQRRRSRTDRKYWA (also: biotinylated (position not given here), TAT plus 9 residues; also called AVC#1832) [YGRKKRRQRRRSRTDRKYWA (SEQ ID NO: 148)]
readout: pEC50
relation symbol: >
reported value: 8.00
//
binder: YGRKKRRQRRRAVAATYSNL (also: biotinylated, position not given here, TAT plus 9 residues; also called AVC#1793) [YGRKKRRQRRRAVAATYSNL (SEQ ID NO: 139)]
readout: pEC50
relation symbol: =
reported value: 6.22
//
binder: YGRKKRRQRRRSVTSTSINL (also: biotinylated (position not given here), TAT plus 9 residues; also called AVC#1835) [YGRKKRRQRRRSVTSTSINL (SEQ ID NO: 151)]
readout: pEC50
relation symbol: =
reported value: 7.05
//
binder: YGRKKRRQRRRARGDRTIIY (also: biotinylated, position not given here, TAT plus 9 residues; also called AVC#1848) [YGRKKRRQRRRARGDRTIIY (SEQ ID NO: 164)]
readout: pEC50
relation symbol: =
reported value: 7.52
//
binder: YGRKKRRQRRRARGDRKVPV (also: biotinylated, position not given here, TAT plus 9 residues; also called AVC#1841) [YGRKKRRQRRRARGDRKVPV (SEQ ID NO: 157)]
readout: pEC50
relation symbol: =
reported value: 7.35
